# experimental-system: Solute carrier family 2, facilitated glucose transporter member 1 (Homo sapiens) (UniProt P11166)
# Sequence (P11166 whole entry): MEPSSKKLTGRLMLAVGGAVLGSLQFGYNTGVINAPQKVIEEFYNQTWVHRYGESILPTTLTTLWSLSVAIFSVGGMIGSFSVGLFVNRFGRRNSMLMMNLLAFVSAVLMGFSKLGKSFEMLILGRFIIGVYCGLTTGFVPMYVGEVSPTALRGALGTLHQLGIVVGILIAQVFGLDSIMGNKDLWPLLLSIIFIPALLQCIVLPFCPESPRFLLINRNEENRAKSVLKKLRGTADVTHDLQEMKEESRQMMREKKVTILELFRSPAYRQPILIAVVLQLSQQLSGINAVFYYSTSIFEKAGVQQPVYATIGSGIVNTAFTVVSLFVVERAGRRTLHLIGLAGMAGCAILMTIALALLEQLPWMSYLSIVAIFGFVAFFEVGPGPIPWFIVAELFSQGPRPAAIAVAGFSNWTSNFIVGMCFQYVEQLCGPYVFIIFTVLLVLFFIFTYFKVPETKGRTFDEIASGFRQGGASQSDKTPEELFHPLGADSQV
# measurement-description: ST_JUDE_LEISH: Cytotoxicity at 2uM final concentration against transgenic Leishmania Mexicana promastigotes LmGLUT1 that are glucose transport deficient and complemented with the human glucose transporter GLUT1. Activity is measured by DNA content using SYBR green in vitro
# Format: functional
quantity: inhibition (%)
Provide only the numeric value, understood in %.

Req: Field request: inhibition | item: "Nc1nccc2ccc(Oc3ccncc3)cc12"
Resp: 2.47

Req: Field request: inhibition | item: "N#Cc1ccc(N(CCOc2ccc(Cl)cc2)Cc2ccccc2C(F)(F)F)cc1C(F)(F)F"
Resp: -1.04

Req: Field request: inhibition | item: "Cc1cccc2nc(C(=O)Nc3nc(CN4CCC(C)CC4)cs3)cn12"
Resp: -0.22

Req: Field request: inhibition | item: "O=C(NCc1ccccc1F)c1ccc(N2CCC(NCc3cccc(-n4cccn4)c3)CC2)cc1"
Resp: -0.13

Req: Field request: inhibition | item: "CC(C)(C)NCCN(Cc1ccc(-c2ccc(C(F)(F)F)cc2)cc1)C(=O)Cn1c(SCc2ccc(F)cc2)nc(=O)c2c1CCC2"
Resp: 0.94

Req: Field request: inhibition | item: COc1cccc2cc(C(=O)N[C@@H](CC(C)C)C(=O)NC3CC[C@@H](C)N(C(=O)Nc4ccncc4)CC3=O)oc12 (some centres undefined)
Resp: 9.49

Req: Field request: inhibition | item: "FC(F)(F)COc1ccc(CNCCCCCCNCc2ccc(OCC(F)(F)F)c3ccccc23)c2ccccc12"
Resp: 113

Req: Field request: inhibition | item: COc1ccc(S(=O)(=O)NC2CCN(c3ccnc4cc(Cl)ccc34)C2)cc1 (centres undefined)
Resp: 4.03

Req: Field request: inhibition | item: "O=[N+]([O-])c1cccc(-n2nc(NCc3ccc(Cl)cc3)nc2-c2ccc(F)c(C(F)(F)F)c2)c1"
Resp: 1.19

* * *

Provide the reported inhibition of each item.
# experimental-system: Hexose transporter 1 (Plasmodium falciparum)
# measurement-description: ST_JUDE_LEISH: Cytotoxicity at 2uM final concentration against transgenic Leishmania Mexicana promastigotes LmPfHT that are glucose transport deficient and complemented with the Plasmodium falciparum hexose transporter. Activity is measured by DNA content using SYBR green in vitro
# Assay type: functional
Provide only the numeric value, understood in %.

Req: Field request: inhibition | item: "Cc1n[nH]c2cc(Nc3ccnc(Nc4cccc(CN5CCOCC5)c4)n3)ccc12"
Resp: 6.54

Req: Field request: inhibition | item: "O=C(Nc1ccc2nc3n(c(=O)c2c1)CCCCC3)C(=O)N1CCC(Cc2ccccc2)CC1"
Resp: 0.77

Req: Field request: inhibition | item: "Cc1nc(-c2ccc(C(F)(F)F)cn2)sc1C(=O)N1CCc2cc3nccc(N4CCN5CCC[C@H]5C4)c3cc21"
Resp: 5.35

Req: Field request: inhibition | item: CC1Cc2ccccc2N1S(=O)(=O)c1cccc(C(=O)Nc2nc(-c3ccccn3)cs2)c1 (stereo not drawn)
Resp: 14.6

Req: Field request: inhibition | item: "c1cc(-c2ccc(CN3CCCC3)cc2)cc(-c2nc3ccccc3[nH]2)c1"
Resp: 1.4

Req: Field request: inhibition | item: "COc1ccc2nccc([C@@H](O)CN3CCC(NCCOc4ccncc4)CC3)c2c1"
Resp: 1.23

Req: Field request: inhibition | item: "O=C(NCc1cccc(Cl)c1)c1ccc(CNC2CCN(Cc3ccccc3)CC2)cc1"
Resp: -0.25

Req: Field request: inhibition | item: CCCCN1CC[C@@H](CCC(O)c2cc(OCCC)nc3ccc(OC)cc23)[C@@H](CC)C1 (stereo partly drawn)
Resp: -1.53

Req: Field request: inhibition | item: Nc1c(Cl)cc(C(O)CNCCCCCOCCCc2ccc(O)c3ncccc23)cc1Cl (stereo not drawn)
Resp: 99.7

Req: Field request: inhibition | item: "CN1CCN(c2ccnc3ccc(NC(=O)Nc4ccc(-c5ccncc5)c(C(F)(F)F)c4)cc23)CC1"
Resp: 9.91

Req: Field request: inhibition | item: "Cc1ccc(C2(CN3CCC(NC(=O)c4cc[nH]n4)CC3)CCCCC2)cc1"
Resp: -1.4

Req: Field request: inhibition | item: "Cc1ccc(NC(=O)c2cccc(CN3CCCN(CC4CCCCC4)CC3)c2)cc1F"
Resp: 0.26

Req: Field request: inhibition | item: "O=c1nc(NCCCNCc2cc3c(Cl)cc(Cl)cc3[nH]2)[nH]c2ccsc12"
Resp: 96.7

Req: Field request: inhibition | item: "CS(=O)(=O)c1ccc(-c2cnc(N)c(-c3cccc(O)c3)c2)cc1"
Resp: 6.49

Req: Field request: inhibition | item: "N#Cc1cccc(CN2CCCN(Cc3cccc(C(=O)Nc4ccc(Cl)cc4)c3)CC2)c1"
Resp: 0.19

Req: Field request: inhibition | item: "O=C(/C=C/c1ccc(Cl)c(Cl)c1)NCCCCCN1CCC(NC(=O)Nc2cc(Cl)ccc2Cl)CC1"
Resp: 8.99

Req: Field request: inhibition | item: COc1ccc(CC(=O)NC(CCCN2CCC(c3ccccc3)CC2)c2ccc(Cl)c(Cl)c2)cc1OC (stereo not drawn)
Resp: 2.2

Req: Field request: inhibition | item: "CC1(C)N=C(N)N=C(N)N1c1ccc(Oc2ccc(Cl)cc2)c(Cl)c1"
Resp: -1.08

Req: Field request: inhibition | item: "CC(=O)Nc1cccc(C(=O)Nc2ccc(-c3ccc(-c4nc5cccc(C)c5[nH]4)s3)cc2)c1"
Resp: 1.16

Req: Field request: inhibition | item: "CO/C(=C\C=C/c1cc2cc(Cl)c(Cl)cc2[nH]1)C(=O)NC1CC(C)(C)N(C)C(C)(C)C1"
Resp: 5.6

Req: Field request: inhibition | item: "CC1(C)NC(N)=NC(=N)N1OCCCOc1cc(Cl)ccc1Cl"
Resp: 13.5

Req: Field request: inhibition | item: "O=C(Cc1ccc(Cl)cc1)Nc1cc(Cl)ccc1Cn1cnc(N2CCNCC2)cc1=O"
Resp: -0.28

Req: Field request: inhibition | item: "Cc1ccccc1Cc1cccc(/N=C(\N)Nc2ccc(Cl)cc2)n1"
Resp: 5.38

Req: Field request: inhibition | item: "NCC(=O)NC12CC3CC(CC(C3)C1)C2"
Resp: 2.25

Req: Field request: inhibition | item: "CCc1ccc(C2CCN(CCCCNC(=O)c3ccc(-c4ccc(C#N)cc4)cc3)CC2)c(OCCO)c1"
Resp: 3.19

Req: Field request: inhibition | item: CC(CNC(=O)[C@H]1CNCCN1C(=O)CCCc1ccccc1)c1ccccc1 (stereo partly drawn)
Resp: -1.25

Req: Field request: inhibition | item: "COc1ccc2ncc(F)c(CCN3CC[C@H](NCc4cc(C#N)c5c(c4)OCCO5)[C@H](O)C3)c2c1"
Resp: 57.5

Req: Field request: inhibition | item: "CCOC(=O)c1c(CN(CC)CC)n(-c2ccccc2)c2cc(Br)c(O)cc12"
Resp: 3.81

Req: Field request: inhibition | item: "COc1ccc(NS(=O)(=O)c2cc(NC(=O)Cn3ccccc3=O)ccc2N2CCCCC2)cc1"
Resp: 3.46

Req: Field request: inhibition | item: "Fc1cccc(COc2ccc(Nc3ncnc4sc(C#C[C@H]5CC[C@H](CN6CCOCC6)N5)cc34)cc2Cl)c1"
Resp: -0.26

Req: Field request: inhibition | item: "O=S(=O)(Nc1cccc(F)c1CNCc1ccccn1)c1ccc(Cl)c(Cl)c1"
Resp: 0.71

Req: Field request: inhibition | item: "O=C(NCc1ccc(F)cc1)Nc1ccc(-c2ccc(-c3nc4ccccc4[nH]3)cc2)cc1"
Resp: -0.46

Req: Field request: inhibition | item: "O=C(NCc1ccc(F)cc1)Nc1cccc(-c2ccc(-c3nc4ccccc4[nH]3)cc2)c1"
Resp: 0.3

Req: Field request: inhibition | item: "CCNc1cc(C(=O)N[C@@H](Cc2ccccc2)[C@H](O)CNC2(C(C)C)CCC2)cc(N2CCCCS2(=O)=O)c1"
Resp: 0.75

Req: Field request: inhibition | item: "Cc1cccc2nc(-c3ccc(-c4ccc(CNCc5ccc(S(C)(=O)=O)cc5)cc4)cc3)[nH]c12"
Resp: 10.9

Req: Field request: inhibition | item: "CC(C)CCNCc1ccc(OCc2cccc(COc3ccc(CNCCC(C)C)cc3I)c2)c(I)c1"
Resp: -0.4

Req: Field request: inhibition | item: COc1ccc(N2C(=O)c3c(c4ccccc4n3C)C2c2ccccc2O)cc1 (stereo not drawn)
Resp: 4.4

Req: Field request: inhibition | item: "COc1ccc(NC(=O)/C=C/c2ccccc2Cl)cc1OCCN1CCC(c2nc3ccccc3[nH]2)CC1"
Resp: 1.68

* * *

Provide the reported inhibition of each item.
# experimental-system: Solute carrier family 2, facilitated glucose transporter member 1 (Homo sapiens)
# measurement-description: ST_JUDE_LEISH: Cytotoxicity at 2uM final concentration against transgenic Leishmania Mexicana promastigotes LmGLUT1 that are glucose transport deficient and complemented with the human glucose transporter GLUT1. Activity is measured by DNA content using SYBR green in vitro
# Assay type: functional
Provide only the numeric value, understood in %.

Req: Field request: inhibition | item: "COc1ccc2nc(-c3cc(-c4ccc(NC(C)=O)cc4)cnc3N)[nH]c2c1"
Resp: 3.72

Req: Field request: inhibition | item: "O=C(Nc1cccc(CN2CCCN(Cc3ccsc3)CC2)c1)c1cc2ccccc2s1"
Resp: 1.11

Req: Field request: inhibition | item: "CC(C)(C)OC(=O)NCC(=O)N(Cc1ccccc1)Cc1ccccc1"
Resp: 4.96

Req: Field request: inhibition | item: "O=C(Nc1cccnc1)c1cc(-c2cccnc2)nc2ccc(Cl)cc12"
Resp: 6.95

Req: Field request: inhibition | item: COc1cc(Nc2nccc(N3CCC(NC(=O)Nc4ccc5c(c4)OCO5)C3)n2)cc(OC)c1OC (configuration not stated)
Resp: 11.1

Req: Field request: inhibition | item: O=c1cc(NCCCNC2CCCc3c2cc(Cl)c(Cl)c3Cl)[nH]c2ccccc12 (configuration not stated)
Resp: -3.43

Req: Field request: inhibition | item: "COc1cccc2c(O)c(CNC3CCCCC3)ccc12"
Resp: -0.95

Req: Field request: inhibition | item: "COc1ccc(Nc2ncc3c(-c4cccc(NC(=O)Cc5ccc(F)cc5)c4)c[nH]c3n2)cc1OC"
Resp: 2.27

Req: Field request: inhibition | item: COc1cccc(-c2ccc(C(=O)NCC3CCCN(Cc4cccc(C(F)(F)F)c4)C3)s2)c1 (configuration not stated)
Resp: 2.94

Req: Field request: inhibition | item: "O=C(O)c1cccc2c(-c3ccncc3)cccc12"
Resp: 0.79

Req: Field request: inhibition | item: Cc1cc(C)c(-c2n[nH]c3c2C(c2cccc(Cl)c2)N(Cc2ccco2)C3=O)c(O)c1 (configuration not stated)
Resp: 1.7

Req: Field request: inhibition | item: "CC1(C)C(=O)Nc2ccccc2N1C(=O)CN1CCN(c2ccccc2O)CC1"
Resp: 0.51

Req: Field request: inhibition | item: "O=C(Nc1ccc(F)cc1)N1CCCN(c2ccnc3cc(Cl)ccc23)CC1"
Resp: 0.02

Req: Field request: inhibition | item: "COc1ccc(-c2cnc3ccc(NCCCO)nn23)cc1OC"
Resp: -0.63

Req: Field request: inhibition | item: "Cc1ccc(S(C)(=O)=O)cc1/C=C/C(=O)O"
Resp: 9.4

Req: Field request: inhibition | item: "COc1cc2ncnc(Nc3ccc(Br)c(Cl)c3)c2cc1OC"
Resp: 5.07

Req: Field request: inhibition | item: "Cc1ccc(C)c(NC(=O)Nc2ccc(Nc3nc(C)cc(N4CCOCC4)n3)cc2)c1"
Resp: 1.4

Req: Field request: inhibition | item: COc1cccc(C(O)CNc2ccnc(Nc3cccc(-c4csc(C)n4)c3)n2)c1 (configuration not stated)
Resp: 1.26

Req: Field request: inhibition | item: "CN(C)CCOc1ccc(NC(=O)Nc2ccnc3c(Br)cccc23)cc1Cl"
Resp: 0.71

Req: Field request: inhibition | item: "O=S1(=O)C=C(c2ccccc2)CC1"
Resp: 1.23

Req: Field request: inhibition | item: "O=C(NCCCCCN1CCC(c2c[nH]c3ccccc23)CC1)Nc1ccc(Cl)cc1Cl"
Resp: 2.57

Req: Field request: inhibition | item: "Fc1ccc2[nH]c(-c3cccc(-c4cccc(CNCCN5CCNCC5)c4)c3)nc2c1"
Resp: 2.5
